Recorded measurements of growth, one per entry
Tested on: MALME-3M melanoma
Experiment: NCI-60 one-dose screen, 48 h (100 = growth as untreated, 0 = no growth, -100 = all killed)
Details: 10 µM unless noted
This is part of a sample that, as a whole, favours compounds with a hit. Of some 83,000 tested, about 20% had one in any assay.
Value Kind: growth (%)

Compound	Target Or Test System	Quantitative Result
COc1cc(CNC(=O)/C=C/c2ccc3c(c2)OCO3)ccc1OCc1cn(-c2ccc([N+](=O)[O-])cc2)nn1	MALME-3M melanoma	87.6
CCOC(=O)/C=C/c1cccc2c1C(=O)NC(C)(c1cc3cc(Br)ccc3oc1=O)N2 (centres undefined)	MALME-3M melanoma	71
CC1[C@H]2[C@H](C[C@H]3[C@@H]4CC=C5c6sc(Nc7ccccc7F)nc6CC[C@]5(C)[C@H]4CC[C@@]32C)O[C@]12CC[C@@H](C)CO2 (some centres undefined)	MALME-3M melanoma	-73.9
COc1ccc2[nH]c(O)c(N=NC(=O)Cn3c(-c4ccccc4)nc4cc(C)ccc43)c2c1	MALME-3M melanoma	-48
